// data source = patent US7763751B2

Recorded pIC50 values for a group of molecules are listed next.
- measurement target: β-Amyloid1-42 (Homo sapiens, UniProt P05067)
- Construct: Synthetic Aβ 1-42 (U.S. Peptide, Rancho Cucamonga, USA)
- Sequence (P05067 672-713 limits assumed): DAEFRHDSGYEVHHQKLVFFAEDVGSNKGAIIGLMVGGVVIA
- method: Inhibition of Aβ 1-42 spontaneous aggregation (HPLC assay)
- study conditions: concentration able to inhibit the aggregation of the fibrils by 50%; peptide 20 μM, pH 7.4, 18 h at 37° C.; read-out: β-Amyloid1-42 Anti-aggregation (HPLC assay) IC50
pIC50: −log10 of the molar value.

{"molecule": "CONC(C)Cc1ccc(O)c(O)c1 (stereo not drawn)", "pIC50": 4.82}
{"molecule": "CCCN(CCC)[C@@H]1Cc2c(O)ccc(O)c2C[C@H]1C (relative stereo) [Compound 3, reference compound]", "pIC50": 4.22}
{"molecule": "CCCN(OCC)C1CCc2c(ccc(O)c2O)C1 (stereo not drawn)", "pIC50": 5.22}

###

- measurement target: α-synuclein (Homo sapiens)
- Construct: The synthetic peptide NAC (Bachem) was dissolved at 1 mg/ml; purchased Bachem; host or cells: chemical synthesis
- method: Inhibition of NAC (α-synuclein) spontaneous aggregation (HPLC assay)
- Assay type: biochemical
- study conditions: NAC peptide 500 μM, pH 7.4, 24 h at 37° C.; read-out: α-synuclein Anti-aggregation (HPLC assay) IC50
outcome measure: IC50

{"compound": "CCCN(CCC)[C@@H]1Cc2c(O)ccc(O)c2C[C@H]1C (relative stereo) [Compound 3, reference compound]", "measurement target": "α-synuclein (Homo sapiens)", "outcome measure": "IC50", "recorded value": "878 µM"}
